system: Amaranthus palmeri (AMAPA); assay: Pre-emergence herbicide test, glasshouse pots; assay type: in vivo; settings: 1000 g/ha, evaluated after 13 days
Below: a set of entries, each annotated with reported AMAPA, percentage damage caused to the plant (five-point scale).

Use the examples below as a reference point.
INSERT INTO measurements (structure_smiles_string, result) VALUES
  ('CCn1cc(-c2cc(OC(F)(F)F)ccc2Cl)c(=O)c(C(=O)O)c1-c1ccc(Cl)c(Cl)c1', '3 (3=41-60%)'),
  ('CCn1cc(-c2cc(C(=O)OC(C)C)c(Cl)cc2F)c(=O)c(C(=O)O)c1-c1ccc(Cl)c(Cl)c1', '5 (5=81-100%)');

Pending molecule:
I'd like to know its AMAPA, percentage damage caused to the plant (five-point scale). The molecule in question is CCn1cc(-c2ccc(Cl)cc2)c(=O)c(C(=O)O)c1-c1ccc(Cl)c(Cl)c1
1 (1=0-20%)
